Target: proMMP9(20-445;ΔFnII) (SEQ ID NO:6) (Homo sapiens, UniProt P14780, DEL216-390)
Construct: start methionine (N)
Sequence (P14780 with tags, fused parts or gaps DEL216-390): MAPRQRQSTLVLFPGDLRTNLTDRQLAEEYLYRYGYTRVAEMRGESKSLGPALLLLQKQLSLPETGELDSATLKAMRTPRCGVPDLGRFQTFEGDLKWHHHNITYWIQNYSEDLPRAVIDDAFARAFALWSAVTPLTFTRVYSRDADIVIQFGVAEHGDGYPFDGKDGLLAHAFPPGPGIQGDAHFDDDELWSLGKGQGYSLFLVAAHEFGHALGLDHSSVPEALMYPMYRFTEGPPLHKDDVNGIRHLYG
Test: ThermoFluor binding assay with proMMP9(20-445;ΔFnII)
Settings: pH 7.0
Class (required): determined from Kd; valid ranges are bottom end: < 500 nM; midrange: ≥ 500 nM and < 4000 nM; top end: ≥ 4000 nM

query_smiles=Cc1nc(N(C)C)sc1-c1csc(Nc2cc(C(N)=O)ccc2OC(C)C)n1 category_label="bottom end"
query_smiles=Cc1nc(C)c(-c2csc(Nc3cc(S(C)(=O)=O)ccc3OC(C)C)n2)s1 category_label="bottom end"
query_smiles=Cc1nc(N)sc1-c1csc(Nc2cc(S(C)(=O)=O)ccc2OC(C)C)n1 category_label="bottom end"
query_smiles=COc1cc(C)c(C(N)=O)cc1Nc1nc(-c2sc(C)nc2C)cs1 category_label=midrange
query_smiles=CC(=O)Nc1nc(C)c(-c2csc(Nc3cc(C(N)=O)ccc3Cl)n2)s1 category_label="top end"
query_smiles=Cc1nc(CN2CCN(C)CC2)sc1-c1csc(Nc2cc(C(N)=O)ccc2OC(C)C)n1 category_label=midrange
query_smiles=CC(=O)Nc1nc(C)c(-c2csc(Nc3cccnc3O)n2)s1 category_label="top end"
query_smiles=COc1ccc(-c2nccs2)cc1Nc1nc(-c2sc(C)nc2C)cs1 category_label="top end"
query_smiles=COc1ccncc1Nc1nc(-c2sc(C)nc2C)cs1 category_label=midrange
query_smiles=COc1ccc(-c2ccnn2C)cc1Nc1nc(-c2sc(C)nc2C)cs1 category_label="top end"
query_smiles=Cc1nc(C)c(-c2csc(Nc3cc(C(N)=O)ccc3OCC(F)(F)F)n2)s1 category_label="bottom end"
query_smiles=CCN(CC)S(=O)(=O)c1ccc(OC)c(Nc2nc(-c3sc(N)nc3C)cs2)c1 category_label="top end"
query_smiles=CCOc1ccc(C(N)=O)cc1Nc1nc(-c2sc(C(=O)N3CCN(CC)CC3)nc2C)cs1 category_label=midrange
query_smiles=Cc1nc(-c2cnccn2)sc1-c1csc(Nc2cc(C(N)=O)ccc2OC(C)C)n1 category_label="bottom end"
query_smiles=COc1ccc(C(N)=O)cc1Nc1nc(-c2sc(N3CCN(C)CC3)nc2C)cs1 category_label=midrange
query_smiles=Cc1nc(CN2CCC(O)CC2)sc1-c1csc(Nc2cc(C(N)=O)ccc2OC(C)C)n1 category_label=midrange
query_smiles=COc1ccc(CC(N)=O)cc1Nc1nc(-c2sc(C)nc2C)cs1 category_label="top end"
query_smiles=Cc1nc(C(=O)N2CCN(C(C)C)CC2)sc1-c1csc(Nc2cc(C(N)=O)ccc2OC(C)C)n1 category_label="bottom end"
query_smiles=Cc1nc(C)c(-c2csc(Nc3cc(C(N)=O)ccc3OC(F)(F)F)n2)s1 category_label="bottom end"
query_smiles=COc1ccc(-c2cnn(C)c2)cc1Nc1nc(-c2sc(C)nc2C)cs1 category_label="top end"
query_smiles=CCOc1ccc(C(N)=O)cc1Nc1nc(-c2sc(N)nc2C)cs1 category_label="bottom end"
query_smiles=Cc1nc(C)c(-c2csc(Nc3cc(C(N)=O)ccc3OC(C)C)n2)s1 category_label="bottom end"
query_smiles=Cc1nc(C)c(-c2csc(Nc3cc(C(N)=O)ccc3OCC(C)C)n2)s1 category_label="top end"
query_smiles=CCOc1ccc(-c2ncco2)cc1Nc1nc(-c2sc(C)nc2C)cs1 category_label="top end"
query_smiles=Cc1nc(NC(=O)C2CCN(C)CC2)sc1-c1csc(Nc2cc(C(N)=O)ccc2OC(C)C)n1 category_label=midrange
query_smiles=Cc1nc(C(=O)N2CCCN(C)CC2)sc1-c1csc(Nc2cc(C(N)=O)ccc2OC(C)C)n1 category_label="bottom end"
query_smiles=CCOc1ccc(C(N)=O)cc1Nc1nc(-c2sc(C(=O)NC3CCN(C)CC3)nc2C)cs1 category_label=midrange
query_smiles=Cc1nc(C)c(-c2csc(Nc3cccc4cccnc34)n2)s1 category_label="top end"

====

Target: proMMP13(1-268) (SEQ ID NO:7) (Homo sapiens, UniProt P45452)
Test: ThermoFluor binding assay with proMMP13(1-268)
Settings: pH 7.0
pKd: −log10 of the molar value.
Class (required): determined from pKd; valid ranges are label 0 = under 5, label 1 = from 5 up to 6, label 2 = 6 and over

compound="COc1ccc(C(N)=O)cc1Nc1nc(-c2sc(N)nc2C(F)(F)F)cs1 [Example 87]" experimental_target="proMMP13(1-268) (SEQ ID NO:7) (Homo sapiens, UniProt P45452)" category_label="label 1"
compound="COc1cc2c(cc1Nc1nc(-c3sc(C)nc3C)cs1)C(=O)NC2 [Example 31]" experimental_target="proMMP13(1-268) (SEQ ID NO:7) (Homo sapiens, UniProt P45452)" category_label="label 0"
compound="Cc1nc(CN2CCOCC2)sc1-c1csc(Nc2cc(C(N)=O)ccc2OC(C)C)n1 [Example 124]" experimental_target="proMMP13(1-268) (SEQ ID NO:7) (Homo sapiens, UniProt P45452)" category_label="label 1"
compound="Cc1nc(C(=O)N2CCCN(C(C)C)CC2)sc1-c1csc(Nc2cc(C(N)=O)ccc2OC(C)C)n1 [Example 112]" experimental_target="proMMP13(1-268) (SEQ ID NO:7) (Homo sapiens, UniProt P45452)" category_label="label 0"
compound="COc1ccc(C)cc1Nc1nc(-c2sc(NC(C)=O)nc2C)cs1 [Example 11]" experimental_target="proMMP13(1-268) (SEQ ID NO:7) (Homo sapiens, UniProt P45452)" category_label="label 0"
compound="Cc1nc(C)c(-c2csc(Nc3cc(C(N)=O)ccc3OCC(C)C)n2)s1 [Example 28]" experimental_target="proMMP13(1-268) (SEQ ID NO:7) (Homo sapiens, UniProt P45452)" category_label="label 0"
compound="Cc1nc(N)sc1-c1csc(Nc2cc(S(N)(=O)=O)ccc2OC(C)C)n1 [Example 60]" experimental_target="proMMP13(1-268) (SEQ ID NO:7) (Homo sapiens, UniProt P45452)" category_label="label 2"
compound="CCOc1ccc(C(=O)O)cc1Nc1nc(-c2sc(N)nc2C)cs1 [Example 46]" experimental_target="proMMP13(1-268) (SEQ ID NO:7) (Homo sapiens, UniProt P45452)" category_label="label 1"
compound="Cc1nc(CN(C)C)sc1-c1csc(Nc2cc(C(N)=O)ccc2OC(C)C)n1 [Example 129]" experimental_target="proMMP13(1-268) (SEQ ID NO:7) (Homo sapiens, UniProt P45452)" category_label="label 1"
compound="COc1ccc(C(=O)O)cc1Nc1nc(-c2sc(NC(C)=O)nc2C)cs1 [Example 57]" experimental_target="proMMP13(1-268) (SEQ ID NO:7) (Homo sapiens, UniProt P45452)" category_label="label 0"
compound="COc1ccc(C#N)cc1Nc1nc(-c2sc(C)nc2C)cs1 [Example 39]" experimental_target="proMMP13(1-268) (SEQ ID NO:7) (Homo sapiens, UniProt P45452)" category_label="label 0"
compound="Cc1nc(-c2ccncc2)sc1-c1csc(Nc2cc(C(N)=O)ccc2OC(C)C)n1 [Example 98]" experimental_target="proMMP13(1-268) (SEQ ID NO:7) (Homo sapiens, UniProt P45452)" category_label="label 1"
compound="CCCOc1ccc(C(N)=O)cc1Nc1nc(-c2sc(C)nc2C)cs1 [Example 13]" experimental_target="proMMP13(1-268) (SEQ ID NO:7) (Homo sapiens, UniProt P45452)" category_label="label 1"
compound="CCOc1ccc(C(N)=O)cc1Nc1nc(-c2sc(C(=O)N3CCCN(C)CC3)nc2C)cs1 [Example 119]" experimental_target="proMMP13(1-268) (SEQ ID NO:7) (Homo sapiens, UniProt P45452)" category_label="label 1"
compound="Cc1nc(C(=O)N2CCN(C(C)C)CC2)sc1-c1csc(Nc2cc(C(N)=O)ccc2OC(C)C)n1 [Example 103]" experimental_target="proMMP13(1-268) (SEQ ID NO:7) (Homo sapiens, UniProt P45452)" category_label="label 2"
compound="CCOc1ccc(-c2ncco2)cc1Nc1nc(-c2sc(C)nc2C)cs1 [Example 80]" experimental_target="proMMP13(1-268) (SEQ ID NO:7) (Homo sapiens, UniProt P45452)" category_label="label 1"
compound="COc1ccc(CC(N)=O)cc1Nc1nc(-c2sc(C)nc2C)cs1 [Example 30]" experimental_target="proMMP13(1-268) (SEQ ID NO:7) (Homo sapiens, UniProt P45452)" category_label="label 0"
compound="COc1ccc(C(N)=O)cc1Nc1nc(-c2sc(NC(C)=O)nc2C)cs1 [Example 85]" experimental_target="proMMP13(1-268) (SEQ ID NO:7) (Homo sapiens, UniProt P45452)" category_label="label 0"
compound="COc1ccc(-c2cccnc2)cc1Nc1nc(-c2sc(C)nc2C)cs1 [Example 141]" experimental_target="proMMP13(1-268) (SEQ ID NO:7) (Homo sapiens, UniProt P45452)" category_label="label 1"
compound="CC(=O)Nc1nc(C)c(-c2csc(Nc3cc(C(N)=O)ccc3OC(C)C)n2)s1 [Example 3]" experimental_target="proMMP13(1-268) (SEQ ID NO:7) (Homo sapiens, UniProt P45452)" category_label="label 2"
compound="CCOc1ccc(C(N)=O)cc1Nc1nc(-c2sc(C(=O)N3CCN(CC)CC3)nc2C)cs1 [Example 117]" experimental_target="proMMP13(1-268) (SEQ ID NO:7) (Homo sapiens, UniProt P45452)" category_label="label 1"
compound="COc1ccc(S(C)(=O)=O)cc1Nc1nc(-c2sc(NC(C)=O)nc2C)cs1 [Example 74]" experimental_target="proMMP13(1-268) (SEQ ID NO:7) (Homo sapiens, UniProt P45452)" category_label="label 1"
compound="CCN(CC)S(=O)(=O)c1ccc(OC)c(Nc2nc(-c3sc(N)nc3C)cs2)c1 [Example 21]" experimental_target="proMMP13(1-268) (SEQ ID NO:7) (Homo sapiens, UniProt P45452)" category_label="label 1"
compound="Cc1nc(C)c(-c2csc(Nc3cc(S(N)(=O)=O)cc4c3OCC4)n2)s1 [Example 33]" experimental_target="proMMP13(1-268) (SEQ ID NO:7) (Homo sapiens, UniProt P45452)" category_label="label 1"
compound="Cc1nc(N)sc1-c1csc(Nc2cc(C#N)ccc2OC(C)C)n1 [Example 71]" experimental_target="proMMP13(1-268) (SEQ ID NO:7) (Homo sapiens, UniProt P45452)" category_label="label 2"
compound="COc1ccc(N)cc1Nc1nc(-c2sc(NC(C)=O)nc2C)cs1 [Example 69]" experimental_target="proMMP13(1-268) (SEQ ID NO:7) (Homo sapiens, UniProt P45452)" category_label="label 0"
